List of composite z-score values.
assay: small-molecule microarray binders of probe aLefty2, primary screen, biochemical, biotinylated probe, 635/667 nm fluorescence (AID 1094); details: higher = more signal;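 further: score merges spot fluorescence near 667 nm with spot signal-to-noise ratio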
Form field (numeric): enter value without unit.

Consider the following illustrative entries.
compound	result
COc1ccc(C#Cc2ccc3c(c2)[C@]2(C(=O)N3)[C@H](c3ccccc3OCCO)N3[C@H](c4ccccc4)[C@H](c4ccccc4)OC(=O)[C@H]3[C@@H]2C(=O)NC[C@H](O)c2ccccc2)cc1	-0.0168
O=C1OCCC/C=C\[C@H]2OC34C=CCN(Cc5ccccc5)C(=O)[C@H]3N(CCO)C(=O)[C@@H]4C12 (stereo partly drawn)	0.235
COCCCNC(=O)[C@@]1(Cc2ccccc2I)c2ccccc2C(=O)N(Cc2ccccc2OC)[C@H]1c1ccc(CO)cc1	-0.142

Name the reported composite z-score value associated with the compound COC(=O)[C@@]1(Cc2ccc(F)cc2)[C@H]2c3cc(C(=O)N(C)C)n(CCF)c3C[C@H]2CN1C(=O)c1ccccc1
0.265

###

target: Alpha-bungarotoxin (Bungarus multicinctus) (UniProt P60615); assay: alpha-bungarotoxin binders on microarray, profiling panel, artefact control for SMM control protein annotation, biochemical, small-molecule microarray, Alexa647 label, 635/667 nm fluorescence (AID 1117); details: alpha-BTX-A647 binding fluorescence, higher = more signal
Sequence (P60615 whole entry, looked up): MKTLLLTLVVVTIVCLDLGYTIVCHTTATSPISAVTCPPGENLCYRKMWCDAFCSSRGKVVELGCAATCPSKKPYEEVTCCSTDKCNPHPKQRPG
value-type: composite z-score

The cases that follow already have their composite z-score on record.
compound	composite z-score
O=C1O[C@H](c2ccccc2)[C@H](c2ccccc2)N2[C@H]1[C@@H](C(=O)N1CCCCCCC1)[C@]1(C(=O)Nc3ccc(C#CCCO)cc31)[C@H]2c1ccc(O)cc1	4.23
C[C@@]1([C@@H](NS(=O)(=O)c2cccc3cccnc23)c2ccc(-c3ccccc3)cc2)C[C@H]1C1CCCCC1	0.33
C=CCOC(=O)[C@H]1[C@@H]2C(=O)O[C@@H](c3ccccc3)[C@@H](c3ccccc3)N2[C@@H](c2ccc(OCCOC(=O)[C@H]3C[C@H]4C(=O)NCC(=O)N4[C@H]3c3ccc(O)cc3)cc2)[C@]12C(=O)Nc1ccccc12	1.77
COCCCNC(=O)[C@@]1(Cc2ccccc2I)c2ccccc2C(=O)N(Cc2ccccc2OC)[C@H]1c1ccc(CO)cc1	0.101
COc1ccc(C(O)C2C=CC3C(=O)N(C)C(=O)C3N2Nc2ccccc2)cc1 (configuration not stated)	1.38
CC[C@@H](O[Si](C#C[Si](C(C)C)(C(C)C)C(C)C)(C(C)C)C(C)C)c1cn([C@H](C)c2ccccc2)nn1	0.188

Now for a further compound.
Look at this compound and give its reported composite z-score. CCOC(=O)C=C1C[C@@H](c2cccc([N+](=O)[O-])c2)O[C@@H](c2cccc([N+](=O)[O-])c2)O1
1.05

###

test: E. coli growth modulation, two-sided OD650, primary screen, E. coli filamentation project, strain DRC41, 24 h (AID 1093); conditions: OD650, 24 h, higher = more signal, called active from +8 up or from −8 down;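 further: MC1000 strain lacking acrAB efflux and sulA so SOS filamentation is blocked; test concentration not given here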
Categories are assigned from the measured z-score using these intervals: bottom end (below 0.05), midrange (0.05 to below 1), top end (1 or more)

compound	category
[N-]=[N+]=NCc1ccccc1C[C@]1(C(=O)N2CCCCC2)COC(c2ccc(OCCCO)cc2)=N1	top end

Class for COc1ccc(C(O)C2C=CC3C(=O)N(C)C(=O)C3N2Nc2ccccc2)cc1 (stereo unspecified) ?
bottom end

Returns: class label. Input: COC(=O)[C@@]1(Cc2ccccc2)[C@H]2c3cc(C(=O)N(C)C)n(CCF)c3C[C@H]2CN1C(=O)c1ccccc1
bottom end

Would you mind sorting C=CC[C@]1(C(N)=O)N=C(c2ccc(OCCCO)cc2)O[C@H]1c1ccccc1N=[N+]=[N-] into the appropriate category?
top end

Consider C=C(CCCC)C(=O)CC[C@H](OC(=O)c1ccccc1-c1ccccc1C(=O)O)c1cccc(OCCO)c1 . To which z-score class does it belong?
midrange

Dear colleague, I would appreciate it if you could identify the bin for CC(=O)NCCCC[C@@H]1NC(=O)[C@H]2C[C@@H](C(=O)O)[C@@H](c3cccc(OCCO)c3)N2C1=O and reply at your convenience.
bottom end

Where would COC(=O)[C@@]1(Cc2ccccc2)[C@H]2c3cc(C(=O)N(C)C)n(Cc4nc5ccccc5[nH]4)c3C[C@H]2CN1C(=O)c1ccccc1 land among the classes by reported z-score?
midrange

Textbook exercise: identify the category of the compound given here, C=C(COC)/C(=C/C[C@@H](OC(C)=O)c1cccc(OCCO)c1)c1cnc2ccccc2c1 , according to its measured value.
top end

Category lookup for the compound CS(=O)(=O)CCOC(=O)C1=CC(CCCO)=CC(C2CC2)N(Cc2sc3ccccc3c2Cl)C=C1C(=O)OCCS(C)(=O)=O (stereo unspecified)
midrange

Into which bin does this compound go? C=CCNC(=O)[C@H]1[C@@H]2C(=O)O[C@@H](c3ccccc3)[C@@H](c3ccccc3)N2[C@@H](c2ccc(O)cc2)[C@]12C(=O)Nc1ccccc12
top end

The origin of these recorded values is PubChem BioAssay.
